Origin of the recorded values: PubChem BioAssay (NCI)

System: RXF 393 renal
Assay: NCI-60 one-dose screen, 48 h (100 = growth as untreated, 0 = no growth, -100 = all killed)
Conditions: 10 µM
Method: Cells are grown in 96 well plates and exposed to the test compound for 48 hours. Compounds are tested at a single concentration, which is 10^-5 M for most compounds. The reported endpoint is percent growth (GI% or GIPRCNT), where numbers from 0 - 100% represent growth inhibition, and numbers from -100% - 0 represent cell death. For example, a value of 40 represents 60% growth inhibition. A value of 0 means no net growth occurred over the course of the experiment. […]
The panel holds about 83,000 compounds, 20% with a hit somewhere; the sample as a whole holds those more often.
Please assign a class to every record based on measured growth, with ranges low: < 40%; medium: ≥ 40% and < 90%; high: ≥ 90%

Asked: Category of `CCCCCCCCCCOC(c1ccccc1)c1ccccc1` , please.
Given back: high

Asked: Please let me know in which category the item O=C(Nc1cc(Cl)cc2c1-c1ccc(Cl)cc1C2O)C(Cl)Cl (stereo not given) belongs.
Given back: medium

Asked: Entry `NC1=CC(=O)C(=O)c2cccnc21` belongs to which category?
Given back: medium

Asked: Lab log: `O=C(O)c1cc([N+](=O)[O-])ccc1Oc1ccccc1` — assign growth category
Given back: high

Asked: Hi there! Could you help me figure out the category for `COc1ccc(CCN2CCC(Nc3nc4ccccc4n3Cc3ccc(F)cc3)CC2)cc1` please?
Given back: low

Further cases:
Asked: State the band of `Nc1cc(-c2ccncc2)c[nH]c1=O`
Given back: high

Asked: Which class holds CC[C@@H](C(=O)[C@@H](C)[C@@H](O)[C@H](C)[C@@H]1O[C@@H]([C@@H](CC)C(=O)O)CC[C@@H]1C)C1O[C@]2(C=CC(=O)[C@]3(CC[C@@](C)([C@H]4CC[C@](O)(CC)[C@H](C)O4)O3)O2)[C@H](C)C[C@@H]1C (stereo not given in full) ?
Given back: low

Asked: For this compound, which bin applies? `COc1ccc(N=Nc2cc(OC)c(OC)c(OC)c2)cc1`
Given back: medium

Asked: Just checking, what class would you give Cc1cc(CC(C)CC(C)(C)C)n(O)c(=O)c1 (stereo not given) (tested in a mixture with another compound) here?
Given back: medium
